# System: DRB4
# Assay Info: HLA class II peptide-binding assay (competitive ELISA)
# Set-up: species or system human
# Condition Parameters: DRB4; competitive ELISA, immunopurified HLA; reference peptide IC50 8 nM; ratio ≤20 high affinity, 20–200 moderate affinity
Measurement Label: relative binding ratio (IC50 of the test peptide divided by IC50 of the reference peptide)

1) LEAKVTMLISGRCQEVK [pTL3, Tear lipocalin peptide p49–65] : 312
2) EILELAQSETCSPGGQ [pC9, Can f 1 peptide p141–156] : > 1 179
3) ALEDFREFSRAKGLNQ [pC8, Can f 1 peptide p125–140] : > 1 179
4) ESILIPRQSETCSPGSD [pTL9, Tear lipocalin peptide p142–158] : > 1 179
5) ALEDFEKAAGARGLST [pTL8, Tear lipocalin peptide p126–141] : > 1 179
6) GQRVVFIQPSPVRDHY [pC5, Can f 1 peptide p81–96] : 1 054
7) MNLESVTPMTLTTLEGGNL [pTL2, Tear lipocalin peptide p31–49] : > 1 179
8) KPDSVTPMILKAQKGGNL [pC2, Can f 1 peptide p31–48] : > 1 179
